- procedure details: Cytotoxicity against human Pulp Cell cells assessed as reduction in cell viability incubated for 48 hrs by MTT assay
- Format: cell-based
The entries below are paired with their reported CC50 at 48 h.
measurement label: CC50 at 48 h

[
  {
    "structure": "O=C(O)c1cc(O)c(O)c(Oc2c(C(=O)O)cc(Oc3c(C(=O)O)cc(O)c(O)c3O)c(O)c2O)c1",
    "measurement label": "CC50 at 48 h",
    "measured": "> 395 µM"
  },
  {
    "structure": "O=C(OC[C@H]1O[C@H]2OC(=O)c3cc(O)c(O)c(c3)Oc3c(cc(Oc4c(C(=O)O[C@H]5[C@H](OC(=O)c6cc(O)c(O)c(O)c6)O[C@@H]6COC(=O)c7cc(O)c(O)c(O)c7-c7c(cc(O)c(O)c7O)C(=O)O[C@H]6[C@@H]5OC(=O)c5cc(O)c(O)c(O)c5)cc(O)c(O)c4O)c(O)c3O)C(=O)O[C@@H]2[C@@H](OC(=O)c2cc(O)c(O)c(O)c2)[C@@H]1O)c1cc(O)c(O)c(O)c1",
    "measurement label": "CC50 at 48 h",
    "measured": "> 116 µM"
  },
  {
    "structure": "COc1cccc2c1C(=O)c1c(O)c3c(c(O)c1C2=O)C[C@@](O)(C(=O)CO)C[C@@H]3O[C@H]1C[C@H](N)[C@H](O)[C@H](C)O1",
    "measurement label": "CC50 at 48 h",
    "measured": "> 10 µM"
  },
  {
    "structure": "O=c1[nH]cc(F)c(=O)[nH]1",
    "measurement label": "CC50 at 48 h",
    "measured": "> 1000 µM"
  }
]
